- System Under Test: Short transient receptor potential channel 4 (Mus musculus)
- Test Protocol: blockers of DAMGO-evoked TRPC4 calcium flux – cell-based, Fluo4, HEK293 TRPC4beta/mu-opioid, confirmation (AID 2636)
- Experimental Conditions: at 10 µM
Active and inactive are the calls of the source.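 How the source made its calls: active means calcium signal cut by more than 3 SD below the full-agonist control yet still positive, in both repeats and the earlier primary screen; inactive means the rest.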
Entry note: the call must match one of 1 (yes) for active, 0 (no) for inactive

[
  {
    "Compound": "CCCn1c(=O)c2ccccc2n2c(SCCOc3ccccc3)nnc12",
    "Class": "1 (yes)"
  },
  {
    "Compound": "Cc1cccc(N2CCN(Cc3ccoc3)CC2)c1C",
    "Class": "1 (yes)"
  },
  {
    "Compound": "NC(=O)NCCN1CCN(c2ncc(C(F)(F)F)cc2Cl)CC1",
    "Class": "0 (no)"
  }
]

Could you check what this test reported for O=C(N/N=C/c1cc2c(cc1Br)OCO2)c1cc2ccccc2o1 ? 1 (yes)

Could you check what this test reported for CCCc1cc(=O)[nH]c(SCC(=O)Nc2sc3c(c2C#N)CCCC3)n1 ? 1 (yes)

Could you check what this test reported for CCOC(=O)c1c(NC(=O)COC(=O)CCOc2ccc(OCC)cc2)sc(C(=O)N(C)C)c1C ? 0 (no)

Could you check what this test reported for O=c1c2ccccc2oc2nc(C3CCCCC3)n(Cc3ccco3)c(=O)c12 ? 0 (no)

Could you check what this test reported for COc1ccc(C(CNC(=O)c2ccc3c(c2)OCCO3)N(C)C)cc1 (stereo not drawn) ? 0 (no)

* * *

- System Under Test: Short transient receptor potential channel 4 (Mus musculus) (UniProt Q9QUQ5)
- Sequence (Q9QUQ5 whole entry, looked up): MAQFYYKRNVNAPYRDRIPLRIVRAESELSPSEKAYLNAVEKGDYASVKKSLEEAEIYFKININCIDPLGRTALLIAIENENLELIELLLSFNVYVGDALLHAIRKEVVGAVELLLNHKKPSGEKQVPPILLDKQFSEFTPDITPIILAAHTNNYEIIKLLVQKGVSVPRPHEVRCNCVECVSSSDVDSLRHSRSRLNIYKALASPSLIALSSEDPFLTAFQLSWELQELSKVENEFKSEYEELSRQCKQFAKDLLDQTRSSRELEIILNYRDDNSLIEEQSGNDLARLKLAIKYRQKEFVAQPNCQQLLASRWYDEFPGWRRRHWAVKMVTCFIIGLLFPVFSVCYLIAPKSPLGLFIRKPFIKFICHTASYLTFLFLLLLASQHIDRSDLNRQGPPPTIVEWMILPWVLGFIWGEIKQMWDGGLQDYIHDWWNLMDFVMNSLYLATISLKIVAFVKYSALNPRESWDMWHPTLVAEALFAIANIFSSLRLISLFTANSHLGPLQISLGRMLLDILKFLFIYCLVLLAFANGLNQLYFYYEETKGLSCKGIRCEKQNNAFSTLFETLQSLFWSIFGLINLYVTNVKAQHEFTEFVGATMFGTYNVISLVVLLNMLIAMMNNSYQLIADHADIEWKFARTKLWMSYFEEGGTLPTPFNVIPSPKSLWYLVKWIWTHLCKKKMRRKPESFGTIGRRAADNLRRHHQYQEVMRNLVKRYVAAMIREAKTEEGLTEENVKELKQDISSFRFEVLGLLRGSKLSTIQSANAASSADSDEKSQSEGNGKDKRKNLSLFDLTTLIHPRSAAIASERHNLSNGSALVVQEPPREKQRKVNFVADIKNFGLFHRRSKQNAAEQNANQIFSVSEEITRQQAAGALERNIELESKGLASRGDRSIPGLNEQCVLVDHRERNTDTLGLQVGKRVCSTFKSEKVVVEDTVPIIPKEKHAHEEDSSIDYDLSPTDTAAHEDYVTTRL
- Test Protocol: calcium flux activators in TRPC4/5HT1a cells, counter-screen for TRPC4 activator project, cell-based, second counter screen, HEK293 TRPC4/5HT1a, Fluo-4 (AID 434977)
- Experimental Conditions: Fluo-4 calcium flux, at 10 µM
Calls of active or inactive are those of the source.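 Rule for the calls: active = calcium signal rise above buffer-control mean plus 5 SD in both duplicates, and also a hit in the primary screen; inactive = the rest.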
Entry note: the call must match one of active, inactive

These recorded examples may help you get a feel for the data.
[
  {
    "Compound": "Cc1noc(C)c1S(=O)(=O)N1CCC(C(=O)NCCCN2CC(C)CC(C)C2)CC1 (centres undefined)",
    "Class": "active"
  },
  {
    "Compound": "CCOC(=O)c1sc2nc(CC(=O)OC)nc(NCc3ccc(F)cc3)c2c1C",
    "Class": "inactive"
  },
  {
    "Compound": "CC(=NCCN1CCN(C(C)=C2C(=O)c3ccccc3C2=O)CC1)C1=C(O)CC(C)(C)CC1=O",
    "Class": "inactive"
  },
  {
    "Compound": "CC(=O)n1cc([C@H]2C=C(C(=O)NCc3ccccc3)O[C@@H](OCc3ccc(CO)cc3)C2)c2ccccc21",
    "Class": "inactive"
  },
  {
    "Compound": "COC(=O)CC(NC(=S)NC(=O)c1ccccc1)c1ccc(Br)cc1 (centres undefined)",
    "Class": "inactive"
  }
]

Could you check what this test reported for COc1ccccc1CNCc1cc(Br)ccc1OC ? inactive

Could you check what this test reported for Cn1c(=O)c2c(nc(CN3CCc4ccccc4C3)n2Cc2ccccc2F)n(C)c1=O ? inactive

Could you check what this test reported for O=C(c1cc2cc(Br)cc(Br)c2oc1=O)N1CCCC1 ? inactive

Could you check what this test reported for CCCCCCCNC(=O)COc1ccc2c(c1)C(=O)CC(C)(C)O2 ? inactive

Could you check what this test reported for CCOC(=O)c1cn(Cc2ccccc2)c(C(=O)OC(C)(C)C)c1O ? active

Could you check what this test reported for CC(=O)c1nn(-c2cccc(Br)c2)cc1C(=O)c1cccc2ccccc12 ? inactive

Could you check what this test reported for Cc1ccccc1C(=O)NC1CC2CCC(C1)N2Cc1ccccc1 (centres undefined) ? inactive

Could you check what this test reported for CCN1CCN(CCC(=O)Nc2ccccc2OC)CC1 ? inactive

Could you check what this test reported for CC(C)CCn1c(N2CCN(c3cccc(Cl)c3)CC2)nc2c1c(=O)[nH]c(=O)n2C ? inactive

Could you check what this test reported for Cc1cccc(Cc2c(C)nc3c(C(=O)NCc4ccco4)cnn3c2C)c1 ? inactive

* * *

- System Under Test: Short transient receptor potential channel 4 (Mus musculus)
- Test Protocol: blockers of DAMGO-evoked TRPC4 calcium flux – cell-based, second round, Fluo4, HEK293 TRPC4beta/mu-opioid, 1 µM, confirmation (AID 2637)
- Experimental Conditions: at 1 µM
Active and inactive are the calls of the source.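 Rule for the calls: active = calcium signal ratio cut to more than 3 SD under the fully stimulated control mean yet still positive, in both repeats and the primary screen; inactive = the rest.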
Entry note: the call must match one of yes (1) for active, no (0) for inactive

[
  {
    "Molecule": "Cc1cc(Br)ccc1OCCN1CCCC1",
    "Class": "no (0)"
  }
]

Could you check what this test reported for CC(C)CCNC(=O)CCC(=O)NNc1nc2ccccc2c2nc(-c3ccccc3)nn12 ? no (0)

Could you check what this test reported for Cn1c(-c2ccc(F)cc2)cnc1NCc1ccc(F)cc1 ? yes (1)

Could you check what this test reported for Oc1c(Br)cc(Br)c(/C=N/n2c(-c3ccccc3)n[nH]c2=S)c1Br ? no (0)

Could you check what this test reported for N=c1n(Cc2ccccc2)c2ccccc2n1CC(O)COc1ccccc1 (stereo unspecified) ? no (0)

Could you check what this test reported for Clc1ccc(OCCCc2nc(-c3ccncc3)no2)c(Cl)c1 ? no (0)

* * *

- System Under Test: Short transient receptor potential channel 4 (Mus musculus) (UniProt Q9QUQ5)
- Test Protocol: calcium flux activators in TRPC4/5HT1a cells, counter-screen for TRPC4 activator project, cell-based, second counter screen, HEK293 TRPC4/5HT1a, Fluo-4 (AID 434977)
- Experimental Conditions: Fluo-4 calcium flux, at 10 µM
Active and inactive are the calls of the source.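 Rule for the calls: active = calcium signal rise above buffer-control mean plus 5 SD in both duplicates, and also a hit in the primary screen; inactive = the rest.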
Entry note: the call must match one of True = active, False = inactive

[
  {
    "Compound": "CCOc1ccccc1C1CC(c2ccc(Cl)cc2)Nc2nc(N)nn21 (stereo unspecified)",
    "Class": "True"
  },
  {
    "Compound": "CCCCCCc1cc2cc(-c3nnc(-c4ccccc4O)o3)c(=O)oc2cc1O",
    "Class": "False"
  },
  {
    "Compound": "CC(=O)c1ccc(OCC(O)CN2CCN(S(=O)(=O)c3c(C)cc(C)cc3C)CC2)cc1 (stereo unspecified)",
    "Class": "False"
  },
  {
    "Compound": "CCN1CCN(c2ccc(S(=O)(=O)N3CCCCC3)cc2NC(=O)c2cc3ccccc3o2)CC1",
    "Class": "False"
  },
  {
    "Compound": "O=C(/C=C/c1ccccc1Cl)N(c1ccccn1)C1CCCCC1",
    "Class": "False"
  }
]

Could you check what this test reported for Cc1ccc(/C=N/NC(=O)NC2CCCCC2)o1 ? False

Could you check what this test reported for Clc1ccc(N=C2SCC3CCCCN23)cc1 (stereo unspecified) ? False

Could you check what this test reported for COCCn1c(SCc2ccccc2F)nc2ccccc2c1=O ? False

Could you check what this test reported for O=C(CC1C(=O)NCCN1Cc1cccc(Oc2ccccc2)c1)NCCc1ccccn1 (stereo unspecified) ? True

Could you check what this test reported for Cc1cc2nc(CSc3ccc(Cl)cc3)cc(=O)n2[nH]1 ? False

Could you check what this test reported for CCCCC[n+]1cccc2c3ccccc3ccc21 ? False

* * *

- System Under Test: Short transient receptor potential channel 4 (Mus musculus)
- Test Protocol: blockers of DAMGO-evoked TRPC4 calcium flux – cell-based, Fluo4, HEK293 TRPC4beta/mu-opioid, confirmation (AID 2636)
- Experimental Conditions: at 10 µM
The source made the active and inactive calls.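 The calls were made as follows: active = calcium signal cut by more than 3 SD below the full-agonist control yet still positive, in both repeats and the earlier primary screen; inactive = the rest.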
Entry note: the call must match one of YES (active), NO (inactive)

[
  {
    "Molecule": "CCOC(=O)C1CCN(c2nc3ccccc3nc2C(C#N)C(=O)OCCOC)CC1 (stereo not given)",
    "Class": "NO"
  }
]

Could you check what this test reported for Cc1sc2ncnc(NCC(c3ccco3)N(C)C)c2c1C (stereo not given) ? NO

Could you check what this test reported for O=C1NC(c2ccccc2)=C(c2nc3ccccc3s2)C(c2ccccc2)N1 (stereo not given) ? NO

Could you check what this test reported for Cc1cc(/C=N/NC(=O)c2cccc([N+](=O)[O-])c2)c(C)n1-c1ccc(Cl)cc1Cl ? YES

Could you check what this test reported for CN(C)CCCN(C(=O)c1ccc(S(=O)(=O)N2CCCC2)cc1)c1nc2c(F)cc(F)cc2s1 ? YES

* * *

- Test Protocol: nonspecific flux increase, KCNQ1-free cells – parental CHO cells, counter-screen for KCNQ1 potentiator project (AID 493006)
- Experimental Conditions: parental CHO-K1 cells, FluxOR thallium flux, at 10 µM
Activity calls are given as the source filed them.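 How the source made its calls: active means duplicate-averaged activation above buffer control mean plus 5 SD of those controls; inactive means the rest.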
Entry note: the call must match one of Y for active, N for inactive

[
  {
    "Compound": "Cc1ccc(/C=N/NC(=O)c2cc3ccccc3cc2O)o1",
    "Class": "Y"
  },
  {
    "Compound": "CC(C)NS(=O)(=O)c1ccc(NC(=O)C(C)Oc2ccc(C(=O)c3ccccc3)cc2)cc1 (stereo not given)",
    "Class": "N"
  },
  {
    "Compound": "Cc1cc(C)cc(N/C(N)=N/c2nc(C)cc(C)n2)c1",
    "Class": "N"
  },
  {
    "Compound": "Cc1[nH][nH]c(=O)c1C(c1ccc(-c2ccc(Cl)cc2)o1)c1c(C)[nH][nH]c1=O",
    "Class": "N"
  }
]

Could you check what this test reported for CCCCN(CC)CCCNC(=O)c1cc2cc3ccc(C)cc3nc2o1 ? N
